Cited source: the supplement of paper PMC11732987

Property: log2 ratio of Biotin-Ahx-Ub-VS probe labelling; scope: individual compounds
molecular target: UniProt Q9P2H5; assay: log2 ratio of Biotin-Ahx-Ub-VS probe labelling (fragment/DMSO); higher = less target engagement (more negative = stronger competition), active = hit call of the paper (q ≤ 0.05, log2 ratio ≤ -1); settings: compound concentration: 200 uM; treatment time: 3 h
Sequence (Q9P2H5 whole entry, the tested form may be a part): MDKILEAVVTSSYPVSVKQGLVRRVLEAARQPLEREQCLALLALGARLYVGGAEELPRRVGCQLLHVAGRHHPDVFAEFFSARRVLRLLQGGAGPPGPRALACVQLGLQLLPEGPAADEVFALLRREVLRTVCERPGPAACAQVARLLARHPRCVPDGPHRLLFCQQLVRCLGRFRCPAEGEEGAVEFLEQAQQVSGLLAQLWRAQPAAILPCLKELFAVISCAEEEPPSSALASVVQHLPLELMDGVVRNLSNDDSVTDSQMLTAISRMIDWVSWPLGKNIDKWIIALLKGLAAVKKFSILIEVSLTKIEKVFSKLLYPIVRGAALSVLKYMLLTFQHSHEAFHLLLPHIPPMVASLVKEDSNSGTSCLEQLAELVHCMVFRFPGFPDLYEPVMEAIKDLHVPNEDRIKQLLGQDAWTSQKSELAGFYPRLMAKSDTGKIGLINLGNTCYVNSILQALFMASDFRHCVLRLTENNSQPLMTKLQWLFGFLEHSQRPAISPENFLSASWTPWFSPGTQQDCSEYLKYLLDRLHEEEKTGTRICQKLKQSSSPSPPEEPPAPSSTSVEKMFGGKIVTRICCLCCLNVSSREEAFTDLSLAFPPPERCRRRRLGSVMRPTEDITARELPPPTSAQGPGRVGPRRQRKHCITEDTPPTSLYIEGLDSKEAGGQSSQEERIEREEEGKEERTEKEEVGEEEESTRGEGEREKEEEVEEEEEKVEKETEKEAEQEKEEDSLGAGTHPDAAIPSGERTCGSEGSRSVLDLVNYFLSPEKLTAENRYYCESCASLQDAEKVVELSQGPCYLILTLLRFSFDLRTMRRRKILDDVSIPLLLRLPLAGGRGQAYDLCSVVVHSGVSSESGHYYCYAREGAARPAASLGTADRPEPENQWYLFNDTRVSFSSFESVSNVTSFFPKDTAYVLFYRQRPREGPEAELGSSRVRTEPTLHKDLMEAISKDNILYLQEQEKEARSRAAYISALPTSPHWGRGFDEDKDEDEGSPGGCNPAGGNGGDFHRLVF

Record excerpt, results attached:
COMPOUND	READING
O=C(CCl)NC1(c2ccc3c(c2)OCCO3)CCCC1	-0.3 (inactive)
O=C(CCl)N1CCC(c2noc3cc(F)ccc23)CC1	-0.0991 (inactive)
O=C(CCl)N1CCC(=C(F)CO)C1	-0.115 (inactive)

Below: the item to evaluate.
Incoming: # returns recorded log2 ratio of Biotin-Ahx-Ub-VS probe labelling (system: UniProt Q9P2H5) for Cc1ccc(CN(CCO)C(=O)CCl)cc1
Outgoing: -0.351 (inactive)

====

biological target: UCHL5 (UniProt Q9Y5K5); assay: log2 ratio of Biotin-Ahx-Ub-VS probe labelling (fragment/DMSO); higher = less target engagement (more negative = stronger competition), active = hit call of the paper (q ≤ 0.05, log2 ratio ≤ -1); details: compound concentration: 200 uM; treatment time: 3 h
Sequence (Q9Y5K5 whole entry, the tested form may be a part): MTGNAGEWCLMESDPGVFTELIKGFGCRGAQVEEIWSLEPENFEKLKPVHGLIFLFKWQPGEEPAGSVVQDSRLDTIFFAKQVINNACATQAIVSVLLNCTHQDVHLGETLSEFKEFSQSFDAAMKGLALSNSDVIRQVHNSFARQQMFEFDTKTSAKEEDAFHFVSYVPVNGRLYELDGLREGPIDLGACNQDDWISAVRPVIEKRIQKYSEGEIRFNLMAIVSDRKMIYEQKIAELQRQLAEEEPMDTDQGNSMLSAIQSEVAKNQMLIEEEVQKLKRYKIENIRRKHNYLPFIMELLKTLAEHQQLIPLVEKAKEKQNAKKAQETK
READOUT KIND: log2 ratio of Biotin-Ahx-Ub-VS probe labelling

Record excerpt, results attached:
MOLECULE	ASSAYED SYSTEM	READING
Cl.O=C(CCl)NCc1cc2c(nc1O)CCCC2	UCHL5 (UniProt Q9Y5K5)	-0.407 (inactive)
NS(=O)(=O)c1ccc(Cl)c(NC(=O)CCl)c1	UCHL5 (UniProt Q9Y5K5)	-0.489 (inactive)
CCN(C(=O)CCl)C1CCS(=O)(=O)C1 (stereo not given)	UCHL5 (UniProt Q9Y5K5)	-0.0522 (inactive)
Cc1cccn2cc(CCNC(=O)CCl)nc12.Cl	UCHL5 (UniProt Q9Y5K5)	-0.00232 (inactive)
CN(CCC(O)c1ccc(Br)cc1)C(=O)CCl (stereo not given)	UCHL5 (UniProt Q9Y5K5)	-0.331 (inactive)
Cc1noc(N2CCN(C(=O)CCl)CC2)n1.Cl	UCHL5 (UniProt Q9Y5K5)	-0.188 (inactive)

Incoming: # returns recorded log2 ratio of Biotin-Ahx-Ub-VS probe labelling (system: UCHL5 (UniProt Q9Y5K5)) for CN(C)C(=O)c1ccc(NC(=O)CCl)cc1
Outgoing: -0.194 (inactive)

Incoming: # returns recorded log2 ratio of Biotin-Ahx-Ub-VS probe labelling (system: UCHL5 (UniProt Q9Y5K5)) for COc1ccc(Cl)cc1NC(=O)CCl
Outgoing: -0.501 (inactive)

Incoming: # returns recorded log2 ratio of Biotin-Ahx-Ub-VS probe labelling (system: UCHL5 (UniProt Q9Y5K5)) for CN(C)S(=O)(=O)c1ccccc1CNC(=O)CCl
Outgoing: -0.199 (inactive)

Incoming: # returns recorded log2 ratio of Biotin-Ahx-Ub-VS probe labelling (system: UCHL5 (UniProt Q9Y5K5)) for O=C(CCl)N[C@H]1CCS(=O)(=O)c2ccccc21
Outgoing: -0.0806 (inactive)

Incoming: # returns recorded log2 ratio of Biotin-Ahx-Ub-VS probe labelling (system: UCHL5 (UniProt Q9Y5K5)) for CC(NC(=O)CCl)c1cccc2ccccc12 (stereo not given)
Outgoing: -0.585 (inactive)

Incoming: # returns recorded log2 ratio of Biotin-Ahx-Ub-VS probe labelling (system: UCHL5 (UniProt Q9Y5K5)) for O=C(CCl)NC1CCC(C(F)(F)F)CC1 (stereo not given)
Outgoing: -0.0657 (inactive)

Incoming: # returns recorded log2 ratio of Biotin-Ahx-Ub-VS probe labelling (system: UCHL5 (UniProt Q9Y5K5)) for O=C(CCl)Nc1ccc2c(c1)OC(F)(F)O2
Outgoing: -0.471 (inactive)

Incoming: # returns recorded log2 ratio of Biotin-Ahx-Ub-VS probe labelling (system: UCHL5 (UniProt Q9Y5K5)) for CN1C(=O)c2ccc(NC(=O)CCl)cc2C1=O
Outgoing: -0.2 (inactive)

Incoming: # returns recorded log2 ratio of Biotin-Ahx-Ub-VS probe labelling (system: UCHL5 (UniProt Q9Y5K5)) for Cc1cccc(N2CCC(NC(=O)CCl)C2=O)c1 (stereo not given)
Outgoing: -0.503 (inactive)
